meta.source: paper PMC11007443

Recorded koff by entry
- System: T1, biotinylated tau 2N4R (Homo sapiens, UniProt P10636-8, biotin (N-hydroxysuccimide-biotin conjugates, 5 M excess))
- T1 construct: tau protein, 2N4R isoform, NCBI NP_005901.2; Expressed from pET15b-tau; also called full-length tau; source: E. coli BL21 (DE3), purified (heating, cation exchange), then biotinylated
- T1 sequence (P10636 other isoform, or with tags, fused parts or gaps): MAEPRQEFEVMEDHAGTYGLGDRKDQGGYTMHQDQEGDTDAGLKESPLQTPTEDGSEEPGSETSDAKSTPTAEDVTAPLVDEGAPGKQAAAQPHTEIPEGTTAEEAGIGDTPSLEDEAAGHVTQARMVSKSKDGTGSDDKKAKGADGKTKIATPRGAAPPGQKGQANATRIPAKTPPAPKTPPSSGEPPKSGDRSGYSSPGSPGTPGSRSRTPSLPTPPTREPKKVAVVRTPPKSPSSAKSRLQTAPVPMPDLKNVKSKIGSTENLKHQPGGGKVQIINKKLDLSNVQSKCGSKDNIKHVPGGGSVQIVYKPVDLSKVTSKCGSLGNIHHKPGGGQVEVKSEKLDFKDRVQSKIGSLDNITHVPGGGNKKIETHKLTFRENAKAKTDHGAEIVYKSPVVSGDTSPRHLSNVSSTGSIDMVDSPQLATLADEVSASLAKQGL
- Procedure summary: SPR; biotinylated tau 2N4R captured on a streptavidin chip (500 RU); VHHs as analytes, 0.125-2 uM, single-cycle kinetics; HBS-EP+ buffer; 1:1 Langmuir model; Kd calculated as koff/kon
- Experimental conditions: both partners purified
Answer with a number only, understood to be in s⁻¹.

VHH Z70 mutant 9 (P101S + G115E) (VHH, as the chain of m1 (VHH Z70); also called Mut9; source: E. coli BL21 (DE3), periplasm, purified (IMAC, SEC)) VHH: EVQLQASGGVFVQSGGSLRLSCAASGATSTFDGMGWFRQAPGKEREFVSAISYEQGSYTYYADSVKGRFTISRDNSKNMVYLQMNSLRAEDTATYYCASAYEGDLYAFDSYGEQGTQVTVSS	0.00205
VHH Z70 mutant 12 (S23C + G115E) (VHH, as the chain of m1 (VHH Z70); also called Mut12; source: E. coli BL21 (DE3), periplasm, purified (IMAC, SEC)) VHH: EVQLQASGGVFVQSGGSLRLCCAASGATSTFDGMGWFRQAPGKEREFVSAISYEQGSYTYYADSVKGRFTISRDNSKNMVYLQMNSLRAEDTATYYCAPAYEGDLYAFDSYGEQGTQVTVSS	0.00207
VHH Z70 mutant 3 (R47K) (VHH, as the chain of m1 (VHH Z70); also called Mut3; source: E. coli BL21 (DE3), periplasm, purified (IMAC, SEC)) VHH: EVQLQASGGVFVQSGGSLRLSCAASGATSTFDGMGWFRQAPGKEKEFVSAISYEQGSYTYYADSVKGRFTISRDNSKNMVYLQMNSLRAEDTATYYCAPAYEGDLYAFDSYGGQGTQVTVSS	0.0021
VHH Z70 mutant 20 (R47K + G115E) (VHH, as the chain of m1 (VHH Z70); Generated by the authors, not found in the screen; also called Mut20; source: E. coli BL21 (DE3), periplasm, purified (IMAC, SEC)) VHH: EVQLQASGGVFVQSGGSLRLSCAASGATSTFDGMGWFRQAPGKEKEFVSAISYEQGSYTYYADSVKGRFTISRDNSKNMVYLQMNSLRAEDTATYYCAPAYEGDLYAFDSYGEQGTQVTVSS	0.00089
VHH Z70 mutant 15 (R90G + P101S + G114E) (VHH, as the chain of m1 (VHH Z70); also called Mut15; source: E. coli BL21 (DE3), periplasm, purified (IMAC, SEC)) VHH: EVQLQASGGVFVQSGGSLRLSCAASGATSTFDGMGWFRQAPGKEREFVSAISYEQGSYTYYADSVKGRFTISRDNSKNMVYLQMNSLGAEDTATYYCASAYEGDLYAFDSYEGQGTQVTVSS	0.00277
VHH Z70 mutant 5 (T96S) (VHH, as the chain of m1 (VHH Z70); also called Mut5; source: E. coli BL21 (DE3), periplasm, purified (IMAC, SEC)) VHH: EVQLQASGGVFVQSGGSLRLSCAASGATSTFDGMGWFRQAPGKEREFVSAISYEQGSYTYYADSVKGRFTISRDNSKNMVYLQMNSLRAEDTASYYCAPAYEGDLYAFDSYGGQGTQVTVSS	0.000882

Query binder follows.
Param item = VHH Z70 mutant 14 (VHH, as the chain of m1 (VHH Z70); The text says only that G115E is combined with additional substitutions in mutant 14; also called Mut14; source: E. coli BL21 (DE3), periplasm, purified (IMAC, SEC)) VHH: EVQLQASGGVFVQSGGSLRLSCAASGATSIFDGMGWFRQAPGKEREFVSAISYGQGSYTYYADSVKGRFTISRDNSKNMVYLQMNSLRAEDTATYYCAPAYEGDLYAFDSYGEQGTQVTVSS ; retrieve measured koff.
0.0014
